test system: MS2 coat protein; experiment: apparent KD of MS2 coat protein; designed switch direction (-1 OFF switch, 1 ON switch): 1; higher = weaker reporter binding; details: input ligand: FMN 200 uM
Assign label 1 whenever apparent KD of MS2 coat protein does not fall below 30 nM; assign label 0 whenever it does.

>  <chain_sequence>
GUUAUACAUGAGGAUCACCCAUGUCAAUGUAGUCGAGGAUAUGGGUAGCUAUGAGGCGUACUAGAAGGCGAGGAGU [JL-ss1-3.16 ViennaUCT mod] (Eterna round: R96, puzzle: Same State 1)

>  <system_name>
MS2 coat protein

>  <label>
label 1

$$$$
>  <chain_sequence>
AAAUUACUCCGAGGAUAUGCAUGGCUUUGUGCCGCAGAAGGUGGAUCGACGGACAUGAGGAUCACCCAUGUACACUGUCCUAUA [Gerite] (Eterna round: R96, puzzle: Same State NG 1)

>  <system_name>
MS2 coat protein

>  <label>
label 0

$$$$
>  <chain_sequence>
UAACGCGCAUGCAAGGAUAUGUGCAGAGCUACAUGAGGAUCACCCAUGUGGUUAUGCUAUUGAAAACAGAAGGUGCCCUCGCUCA [Ceties] (Eterna round: R96, puzzle: Same State 2)

>  <system_name>
MS2 coat protein

>  <label>
label 0

$$$$
>  <chain_sequence>
UCAGUCAUGUAAGGAUAUGCAGCCGAAACGGCUGCAGAAGGUACUAUAAUUACAUGAGGAUCACCCAUGUUAUAAAUAAAAUAU [Mat - Same State NG 1 - JL mod - D66] (Eterna round: R96, puzzle: Same State NG 1)

>  <system_name>
MS2 coat protein

>  <label>
label 0

$$$$
>  <chain_sequence>
UGAAUAGUGAUAGGAUAUACAUGAGGAAUCCUCGUAGAAGGAUCAUAACAUGAGGAUCACCCAUGUAGCCGUCCGUAGACGGCA [Mat - Same State NG 1 - JL mod - D56] (Eterna round: R96, puzzle: Same State NG 1)

>  <system_name>
MS2 coat protein

>  <label>
label 1

$$$$
>  <chain_sequence>
GUGGCGGGUUGAGGAUAUUGGUUGCCGCUGUUUUACAUGAGGAUCACCCAUGUGGGUUGCGGUUUCGAGAAGGGAGGUUGCUGG [salish99_SSNG2_r04_055] (Eterna round: R96, puzzle: Same State NG 2)

>  <system_name>
MS2 coat protein

>  <label>
label 0

$$$$
>  <chain_sequence>
GGUGGGUUACUACCAACACAUGAGGAUCACCCAUGUUUUGGGAAGGAUAUGGUACCUAUUUGGUACCAGAAGGUCCAGUUGGUG [salish99_SSNG3_r04_703] (Eterna round: R96, puzzle: Same State NG 3)

>  <system_name>
MS2 coat protein

>  <label>
label 1

$$$$
>  <chain_sequence>
GCGGAGAGGUAAGGAUAUCCAUGGAAGACACAUGAGGAUCACCCAUGUGGGAGGGAAACCAGGAGGGAGAAGGUACCGGGACGC [AK SSNG2-V2-21] (Eterna round: R96, puzzle: Same State NG 2)

>  <system_name>
MS2 coat protein

>  <label>
label 0

$$$$
>  <chain_sequence>
UGGAUGGUGAUAGGAUAUACAUGAGGAAUCCUCGUAGAAGGAUCACGACAUGAGGAUCACCCAUGUAGCCGUCCGUAGACGGCU [salish99_SSNG1_r04_004] (Eterna round: R96, puzzle: Same State NG 1)

>  <system_name>
MS2 coat protein

>  <label>
label 1

$$$$
